B1: Twister Ribozyme (parent)
chain: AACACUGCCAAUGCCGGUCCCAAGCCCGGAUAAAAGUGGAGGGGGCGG

variants of: B1; experiment: self-cleavage, relative activity (ratio to wild type); higher = more cleavage; co-transcriptional
Attribute: self-cleavage

| var | self-cleavage |
| --- | --- |
| A30G G39U | 0.191 |
| G17U A33G | 0.317 |
| A2U A40U | 0.154 |
| U12A A23U | 0.767 |
| A2G G44C | 0.212 |
| U18A A23C | 0.372 |
| A10C G41U | 0.653 |
| U18G G38A | 0.0601 |
| G41U G48U | 0.584 |
| A4G G38U | 0.947 |
| A34U C46G | 0.839 |
| A35G G36A | 0.718 |
| G42C G47U | 0.491 |
| C9U G17A | 0.0711 |
| G24C G36U | 0.0983 |
| A40U G48A | 0.159 |
| A11C G44U | 0.791 |
| G42U | 0.445 |
| G42C G43U | 0.137 |
| C20G G39C | 0.0945 |
| C20G C27G | 0.0793 |
| G29C A40U | 0.101 |
| A2U G45C | 0.191 |
| G7A C9U | 0.0809 |
| G7C A23U | 0.0664 |
| G43A G48C | 0.354 |
| C5G C8A | 0.15 |
| G7C A35C | 0.064 |
| C5A G28A | 0.232 |
| G16A | 1.03 |
| G24U A33G | 0.104 |
| U12A A35G | 1.06 |
| A1G G17C | 0.128 |
| U12G G28U | 0.464 |
| C9G C27U | 0.326 |
| C9A U18C | 0.0799 |
| C21G A35U | 0.0529 |
| C27A G47C | 0.183 |
| C5A U18C | 0.106 |
| A35C C46A | 0.98 |
| A4G A34C | 0.128 |
| G44C G45A | 0.762 |
| G7C C15A | 0.0454 |
| A23G C46U | 0.579 |
| G13C G38U | 0.158 |
| G13A A23G | 0.0799 |

Value source: the RNAGym collection of RNA variant scans (doi:10.7554/elife.80360)
